# System: A498 renal
# assay: NCI-60 one-dose screen, 48 h
# experimental.setup: 10 µM
Compounds without any hit were thinned out: in the full panel of roughly 83,000, 20% have a hit. The source made the active and inactive calls. Rule for the calls: active = growth percent below 10; inactive = the rest.
Output constraint: value belongs to active, inactive

molecule | answer.label
COc1ccc(-c2nn(-c3cccc(NC(=O)c4cc(C(F)(F)F)cc(C(F)(F)F)c4)c3)cc2-c2ccncc2)cc1Cl | inactive
O=c1oc2cc(OS(=O)(=O)c3ccccc3)ccc2c2c1CCCCC2 | inactive
O=C1/C(=C\c2ccc(F)cc2)CN(C(=O)c2ccccc2)C/C1=C\c1ccc(F)cc1 | inactive
Nc1ncn(C2OC(CO)C(O)C2O)c(=O)n1 (stereo not drawn) | inactive
COc1cc2cc3c(nc2cc1OC)CCN3Cc1ccc(NC(=O)Nc2cc(C(F)(F)F)cc(C(F)(F)F)c2)cc1 | inactive
N#Cc1ncc(-c2cc(F)c(F)c(F)c2)c(NC2CCCCCC2)n1 | inactive
O=C(Nc1cccc(-n2cc(-c3ccncc3)c(-c3ccc(O)c(Cl)c3)n2)c1)c1cccc(C(F)(F)F)c1 | inactive
Clc1ccccc1N=Cc1ccc2c(c1)OCO2 | inactive

Q. What outcome does the record of this test show for CCCCCCCCCCCCC1C/C=C\CCCC(=O)O1 (stereo not drawn) ?
A. inactive

Q. Record request — test call for `Cc1cccc(C)c1NC(=O)c1sc2nc3c(cc2c1N)C(=O)CCC3`
A. active

Q. Hello, I am checking results. What call was entered for `O=S(=O)(Nc1ccccn1)c1ccc(N=Nc2ccc(O)c3ncccc23)cc1` ?
A. active

Q. Hey, what did the test say about `COc1cc(-c2cc(C(=O)N3CCN(C(=O)c4ccccc4NCc4ccco4)CC3)nc3cc(-c4ccccc4)nn23)cc(OC)c1OC` ?
A. active

Q. Lab log entry: `COc1ccc(-c2cc(/C=C3\C(=O)Nc4ccc(OC)cc43)[nH]n2)cc1` — outcome as called in the assay?
A. inactive
